Exercise: for every item that follows, state its recorded relative viability.
Tested on: LU99A
Assay: relative viability (nuclei count vs DMSO), 5 days (fraction); higher = more cells survive
Conditions: first compound 0.8 µM
One number for each entry.

Answer for every listed entry: what is its relative viability? The entries follow.
1. C=C1C(=O)O[C@@H](CCCCCCCC)[C@@H]1C(=O)O [C-75] + COc1cc2c(Oc3ccc(NC(=O)C4(C(=O)Nc5ccc(F)cc5)CC4)cc3F)ccnc2cc1OCCCN1CCOCC1 [Foretinib] (partner 0.25 µM)
2. C=C1C(=O)O[C@@H](CCCCCCCC)[C@@H]1C(=O)O [C-75] + Cc1nc(NC(=O)N2CCC[C@H]2C(N)=O)sc1-c1ccnc(C(C)(C)C(F)(F)F)c1 [Alpelisib] (partner 2 µM)
3. Oc1nc(-c2ccc(C(F)(F)F)cc2)nc2c1CSCC2 [XAV939] + CS(=O)(=O)CCNCc1ccc(-c2ccc3ncnc(Nc4ccc(OCc5cccc(F)c5)c(Cl)c4)c3c2)o1 [Lapatinib] (partner 2 µM)
4. Oc1nc(-c2ccc(C(F)(F)F)cc2)nc2c1CSCC2 [XAV939] + C[C@]1(O)C[C@@H](c2nc(-c3ccc4ccc(-c5ccccc5)nc4c3)c3c(N)nccn32)C1 [Linsitinib] (partner 1 µM)

Outgoing:
1: 0.831; 2: 0.516; 3: 0.995; 4: 0.505
